# MEASUREMENT_TARGET: ΔF508 CFTR (Homo sapiens, UniProt P13569, DEL508-508)
# Sequence (P13569 with tags, fused parts or gaps DEL508-508): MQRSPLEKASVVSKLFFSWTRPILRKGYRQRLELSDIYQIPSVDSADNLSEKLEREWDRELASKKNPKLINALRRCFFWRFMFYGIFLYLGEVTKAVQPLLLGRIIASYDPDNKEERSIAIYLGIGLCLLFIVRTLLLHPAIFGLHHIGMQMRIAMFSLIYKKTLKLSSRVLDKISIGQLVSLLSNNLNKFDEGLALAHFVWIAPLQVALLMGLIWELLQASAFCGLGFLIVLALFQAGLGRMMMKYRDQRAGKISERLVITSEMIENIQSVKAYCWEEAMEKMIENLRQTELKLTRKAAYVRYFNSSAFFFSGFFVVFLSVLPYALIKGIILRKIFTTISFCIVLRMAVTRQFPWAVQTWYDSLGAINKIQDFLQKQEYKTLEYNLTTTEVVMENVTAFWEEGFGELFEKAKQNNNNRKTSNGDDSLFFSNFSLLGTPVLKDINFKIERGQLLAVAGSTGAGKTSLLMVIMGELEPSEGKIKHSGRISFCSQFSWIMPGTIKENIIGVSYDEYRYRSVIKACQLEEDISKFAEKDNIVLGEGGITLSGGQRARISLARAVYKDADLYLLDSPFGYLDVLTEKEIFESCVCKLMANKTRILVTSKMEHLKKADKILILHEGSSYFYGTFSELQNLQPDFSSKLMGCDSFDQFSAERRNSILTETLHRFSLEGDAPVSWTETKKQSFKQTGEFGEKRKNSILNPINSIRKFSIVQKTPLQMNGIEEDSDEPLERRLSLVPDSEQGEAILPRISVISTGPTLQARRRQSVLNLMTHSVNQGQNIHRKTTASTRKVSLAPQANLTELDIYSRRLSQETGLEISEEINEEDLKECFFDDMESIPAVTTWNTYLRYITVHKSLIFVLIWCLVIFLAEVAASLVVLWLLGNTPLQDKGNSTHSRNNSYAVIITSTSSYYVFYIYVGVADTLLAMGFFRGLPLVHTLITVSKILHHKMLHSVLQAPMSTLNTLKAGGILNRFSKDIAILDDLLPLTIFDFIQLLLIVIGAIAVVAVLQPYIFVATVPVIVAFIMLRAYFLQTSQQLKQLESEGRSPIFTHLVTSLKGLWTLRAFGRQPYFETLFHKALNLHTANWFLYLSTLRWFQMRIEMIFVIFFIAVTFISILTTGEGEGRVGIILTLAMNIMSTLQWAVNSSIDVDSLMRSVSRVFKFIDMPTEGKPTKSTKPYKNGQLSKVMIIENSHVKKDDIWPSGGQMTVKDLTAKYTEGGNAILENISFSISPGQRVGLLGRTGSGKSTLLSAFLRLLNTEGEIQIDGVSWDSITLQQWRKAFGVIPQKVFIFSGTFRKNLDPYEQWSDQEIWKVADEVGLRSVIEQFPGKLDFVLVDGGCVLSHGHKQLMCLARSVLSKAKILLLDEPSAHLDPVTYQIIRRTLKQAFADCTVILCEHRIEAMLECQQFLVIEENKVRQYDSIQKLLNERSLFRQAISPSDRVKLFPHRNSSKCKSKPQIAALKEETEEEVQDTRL
# TEST_METHOD_NOTES: Corrector activity, YFP halide (iodide) quenching assay in FRT cells expressing ΔF508 CFTR
# Assay type: cell-based
# Design: expressed in transfected cells; host or cells: Fischer rat thyroid (FRT) cells
# EXPERIMENTAL_SETUP: FRT cells ΔF508 CFTR/YFP, 24 hours with compound at 37° C., forskolin and genistein; read-out: Corrector EC50
pEC50: −log10 of the molar value.
In this section, each of the compounds is paired with its reported pEC50.
PROPERTY_NAME: pEC50

CCn1nc(-c2ccc(Cl)cc2)c2c(NC(C)=O)ncnc21 [compound 53]    5.00 to 5.30
Cc1ccc(-c2nn(C(C)(C)C)c3ncnc(Nc4ncccn4)c23)cc1 [Compound No. 234]    < 4.82
CC(C)(C)n1cc(-c2ccc(Cl)cc2)c2c(NC(=O)C3CCCO3)ncnc21 (stereo not drawn) [compound 376]    5.30 to 5.70
CC(C)(C)n1nc(-c2ccc(Cl)cc2)c2c(NC(=O)C3CCCC3)ncnc21 [compound 266]    5.00 to 5.30
CC(=O)Nc1ncnc2c1c(-c1ccc(F)cc1)nn2C(C)(C)C [compound 118]    < 4.82
Nc1ncnc2c1c(-c1ccc(Cl)cc1)nn2C(=O)C1CC1 [compound 182]    5.00 to 5.30
CCn1cc(-c2ccc(Cl)cc2)c2c(NC(=O)NC(C)C)ncnc21 [compound 328]    < 4.82
Cc1ccc(C(=O)Nc2ncnc3c2c(-c2ccc(C)cc2)nn3C(C)(C)C)cc1 [compound 95]    < 4.82
CCOC(=O)N1CCC(n2nc(Oc3ccccc3)c3c(N)ncnc32)CC1 [compound 386]    < 4.82

====

In this section, each of the compounds is paired with its reported EC50.
# MEASUREMENT_TARGET: ΔF508 CFTR (Homo sapiens, UniProt P13569, DEL508-508)
# TEST_METHOD_NOTES: Potentiator activity, YFP halide (iodide) quenching assay in FRT cells expressing ΔF508 CFTR, 27° C. pre-incubation
# Assay type: cell-based
# Set-up: expressed in transfected cells; host or cells: Fischer rat thyroid (FRT) cells
# EXPERIMENTAL_SETUP: FRT cells ΔF508 CFTR/YFP, 24 hours at 27° C., compound with forskolin 30 min
PROPERTY_NAME: EC50

CC(C)(C)n1nc(-c2ccc(O)cc2Cl)c2c(N)ncnc21    < 2 µM
CCn1nc(S(=O)(=O)c2cccc3ccccc23)c2c(N)ncnc21    > 15 µM
CNC(=O)c1cnc2c(c(-c3ccc(C)cc3)nn2C(C)(C)C)c1N    > 15 µM
CCn1nc(Sc2cccc(C)c2)c2c(N)ncnc21    < 2 µM
CC(C)(C)n1nc(Oc2ccc(F)c(F)c2)c2c(N)ncnc21    < 2 µM
CC(C)(C)n1nc(-c2ccc(Cl)cc2)c2c(NC(=O)O[C@H]3CCOC3)ncnc21    < 2 µM
CCn1cc(-c2ccc(Cl)cc2)c2c(NC(=O)c3ccc(C)cc3)ncnc21    > 15 µM
CCn1nc([S+]([O-])c2ccc(F)cc2F)c2c(N)ncnc21 (stereo not shown)    > 15 µM
Cc1cccc(-c2nn(C(C)(C)C)c3ncnc(N)c23)c1    2 to 5 µM
CC(C)(C)n1nc(Oc2cccc(F)c2F)c2c(N)ncnc21    2 to 5 µM
CC(C)(C)n1nc(Oc2ccc(Cl)cc2)c2c(N)ncnc21    < 2 µM
CC(C)(C)n1nc(O)c2c(N)ncnc21    > 15 µM
CCn1cc(-c2ccc(Cl)cc2)c2c(NC(=O)c3ccccc3)ncnc21    > 15 µM
CCn1nc(Nc2cccc(Cl)c2)c2c(N)ncnc21    > 15 µM
CC(C)(C)n1nc(Oc2ccc(OCc3ccccc3)cc2)c2c(N)ncnc21    > 15 µM
CC(C)(C)n1nc(-c2ccc(Cl)cc2)c2c(NC(=O)N3CCCCC3)ncnc21    > 15 µM
CC(C)(C)n1nc(Oc2cccc(Cl)c2)c2c(NC(=O)c3ccccc3)ncnc21    < 2 µM
CCn1nc2cccc(N)c2c1-c1ccc(C)cc1    > 15 µM
CN1CC(n2nc(-c3ccc(Cl)cc3)c3c(N)ncnc32)C1    > 15 µM
CCC(=O)Nc1ncnc2c1c(-c1ccc(Cl)cc1)cn2CC    5 to 10 µM
CCn1nc([S+]([O-])c2ccccn2)c2c(N)ncnc21 (stereo not shown)    5 to 10 µM
Nc1ncnc2c1c(-c1ccc(Cl)cc1)nn2[C@@H]1CCOC1    > 15 µM
CCn1nc([S+]([O-])c2cccc(O)c2)c2c(N)ncnc21 (stereo not shown)    > 15 µM
CCOC(=O)N1CC(n2nc(Sc3cccc(Cl)c3)c3c(N)ncnc32)C1    2 to 5 µM
CC(C)(C)n1nc(Oc2ncccn2)c2c(N)ncnc21    > 15 µM
CC(C)(C)n1nc(Oc2cccc(OC(F)(F)F)c2)c2c(N)ncnc21    > 15 µM
CC(C)(C)n1nc(Oc2ccc(F)cc2)c2c(N)ncnc21    < 2 µM
CC(C)(C)OC(=O)N1CC(n2nc(Cc3cccc4ccccc34)c3c(N)ncnc32)C1    2 to 5 µM
CC(C)(C)n1nc(-c2ccc(Cl)cc2)c2c(NC(=O)O[C@@H]3CCOC3)ncnc21    > 15 µM
Nc1ncnc2c1c(-c1ccc(Cl)cc1)nn2C(=O)Oc1ccccc1    > 15 µM
CCNC(=O)N1CCC(n2nc(-c3ccc(Cl)cc3)c3c(N)ncnc32)CC1    > 15 µM
CCn1nc(Sc2cccc(OC)c2)c2c(N)ncnc21    > 15 µM
CCn1nc([S+]([O-])c2cc(F)cc(F)c2)c2c(N)ncnc21 (stereo not shown)    > 15 µM
CC(C)(C)n1nc(Oc2ccccc2F)c2c(N)ncnc21    < 2 µM
CC(C)(C)n1nc(Oc2cccc(-c3ccccc3)c2)c2c(N)ncnc21    > 15 µM
CCn1cc(-c2ccc(Cl)cc2)c2c(NC(=O)NC(C)C)ncnc21    > 15 µM
CC(C)OC(=O)Nc1ncnc2c1c(-c1ccc(Cl)cc1)nn2C(C)(C)C    > 15 µM
